Ref: patent US6271342A

- Tested on: LXFL 529
- method.description: Two-layer soft agar culture of human tumour xenografts
- Type: cell-based
- condition.label: T/C ≤30%
- Method: The in vitro activity of glycoconjugates of quinolone-a was determined on human tumour xenografts in a two-layer soft agar culture system according to Hamburger and Salmon (Science 197: 461-463). […] The cultures were incubated at 37° C. in a 7% CO2 atmosphere for 6 to 15 days. The colonies which had grown were then counted under an inverting microscope, the living colonies being stained with a tetrazolium chloride dyestuff 24 hours before the evaluation. […]

compound: CO[C@H]1[C@H](O)[C@@H](Oc2ccc(NC(=S)N[C@H](C)C(=O)NC3C=CCC4CN(c5c(F)cc6c(=O)c(C(=O)O)cn(C7CC7)c6c5Cl)CC43)cc2)O[C@@H](C)[C@H]1O (some centres unmarked)
tested.target: LXFL 529
value.units: µg/mL
IC70 /μg/ml: 0.9

compound: C[C@@H]1O[C@H](Oc2ccc(NC(=S)N[C@H](C)C(=O)NC3C=CCC4CN(c5c(F)cc6c(=O)c(C(=O)O)cn(C7CC7)c6c5Cl)CC43)cc2)[C@@H](O)[C@H](OCC(=O)[O-])[C@@H]1O.[Na+] (some centres unmarked)
tested.target: LXFL 529
value.units: µg/mL
IC70 /μg/ml: 2

compound: COC1C(O)C(C)OC(Oc2ccc(NC(=S)NCCCCC(NC(=S)Nc3ccc(OC4OC(C)C(O)C(OC)C4O)cc3)C(=O)NC3C=CCC4CN(c5c(F)cc6c(=O)c(C(=O)O)cn(C7CC7)c6c5Cl)CC43)cc2)C1O (mixture of isomers)
tested.target: LXFL 529
value.units: µg/mL
IC70 /μg/ml: 4

compound: COC1C(O)C(C)OC(Oc2ccc(NC(=S)NC(CCCCN)C(=O)NC3C=CCC4CN(c5c(F)cc6c(=O)c(C(=O)O)cn(C7CC7)c6c5Cl)CC43)cc2)C1O (centres unmarked)
tested.target: LXFL 529
value.units: µg/mL
IC70 /μg/ml: 2

compound: N[C@@H]1C=CC[C@@H]2CN(c3c(F)cc4c(=O)c(C(=O)O)cn(C5CC5)c4c3Cl)C[C@@H]21 (racemic) [Quinolone-a, reference compound]
tested.target: LXFL 529
value.units: µg/mL
IC70 /μg/ml: 3

====

Collected % cleavage in SW-480 24 hours values appear next to each entry.
- Test system: SW-480

molecule: CO[C@H]1[C@H](O)[C@@H](Oc2ccc(NC(=S)NCCCC[C@H](NC(=S)Nc3ccc(O[C@H]4O[C@@H](C)[C@@H](O)[C@@H](OC)[C@@H]4O)cc3)C(=O)N[C@@H](C)C(=O)NC3C=CCC4CN(c5c(F)cc6c(=O)c(C(=O)O)cn(C7CC7)c6c5Cl)CC43)cc2)O[C@@H](C)[C@H]1O (some centres unmarked)
% cleavage in SW-480 24 hours / %: 0
--
molecule: CC(NC(=O)C(CO)NC(=S)Nc1ccc(OC2OC(C)C(O)C(O)C2O)cc1)C(=O)Nc1ccc2c(c1)Cn1c-2nc2ccccc2c1=O (centres unmarked)
% cleavage in SW-480 24 hours / %: 0
--
molecule: COC1C(O)C(C)OC(Oc2ccc(NC(=S)NCCCCC(NC(=S)Nc3ccc(OC4OC(C)C(O)C(OC)C4O)cc3)C(=O)NC3C=CCC4CN(c5c(F)cc6c(=O)c(C(=O)O)cn(C7CC7)c6c5Cl)CC43)cc2)C1O (mixture of isomers)
% cleavage in SW-480 24 hours / %: 0
--
molecule: CO[C@H]1[C@H](O)[C@@H](Oc2ccc(NC(=S)N[C@H](C)C(=O)NC3C=CCC4CN(c5c(F)cc6c(=O)c(C(=O)O)cn(C7CC7)c6c5Cl)CC43)cc2)O[C@@H](C)[C@H]1O (some centres unmarked)
% cleavage in SW-480 24 hours / %: 0
--
molecule: CO[C@H]1[C@H](O)[C@@H](Oc2ccc(NC(=S)NCCCC[C@H](NC(=S)Nc3ccc(O[C@H]4O[C@@H](C)[C@@H](O)[C@@H](OC)[C@@H]4O)cc3)C(=O)NC3C=CCC4CN(c5c(F)cc6c(=O)c(C(=O)O)cn(C7CC7)c6c5Cl)CC43)cc2)O[C@@H](C)[C@H]1O (some centres unmarked)
% cleavage in SW-480 24 hours / %: 8
